system: S. flexneri 2a 301; experiment: Gentamicin protection assay, HeLa cell invasion by Sf301; type: cell-based; settings: bacteria treated 8 h, Figure S4
assay readout: effect on HeLa cell invasion ability of Sf301

Input: Return reported effect on HeLa cell invasion ability of Sf301 for target or system S. flexneri 2a 301, item `O=C(Nc1ccc(C2(c3cccc(NC(=O)c4cccc5ccccc45)c3)c3ccccc3C(=O)c3ccccc32)cc1)c1ccc2ccccc2c1` .
Output: can inhibit

Input: Look up and report measured effect on HeLa cell invasion ability of Sf301 (S. flexneri 2a 301) for the following compound: `CCOc1ccccc1-c1cc(C(=O)N/N=C/c2ccc(OCc3ccccc3)c(OC)c2)c2ccccc2n1`
Output: can inhibit

Input: # return effect on HeLa cell invasion ability of Sf301 for `O=C(O)c1ccc(Cl)c(-c2ccc(/C=N/NC(=O)c3ccc(Br)cc3)o2)c1` , test system: S. flexneri 2a 301
Output: can inhibit
